assay: in vivo; details: male, Sprague-Dawley, rat, po
property-label: bioavailability at 24 h

query: Value lookup for bioavailability at 24 h; key = O=c1nc(OC[C@@H]2COCCO2)cc2n1CCc1cc(C#CC3CC3)ccc1-2
result: > 100%

---

assay: physchem; settings: aqueous solution with 2% DMSO, pH 3
For each entry below, report its solubility value.
Answer format: numeric, µg/mL implied, no suffix.

query: Value lookup for solubility; key = O=c1nc(OC[C@@H]2COCCO2)cc2n1CCc1cc(C#CC3CC3)ccc1-2
result: 113

query: Value lookup for solubility; key = O=c1nc(OC[C@H]2COCCO2)cc2n1CCc1cc(C#CC3CC3)ccc1-2
result: 113

---

test: in vivo; settings: Balb/cj, mouse, plasma, po, 10 mg/kg
property-label: Cmax (ng/mL)
Answer format: numeric, ng/mL implied, no suffix.

query: Value lookup for Cmax; key = O=c1nc(OC[C@@H]2COCCO2)cc2n1CCc1cc(C#CC3CC3)ccc1-2
result: 8140

---

assay: in vivo; settings: CD1, mouse, po, 5 mg/kg
Description: Half-life in CD1 mouse at 5 mg/kg, po administered as single esophageal gavage dose post 12 hr fasting using PEG-200/water formulation measured after 24 hrs by LC-MS/MS analysis
property-label: half-life at 24 h (h)
Answer format: numeric, h implied, no suffix.

query: Value lookup for half-life at 24 h; key = O=c1nc(OC[C@@H]2COCCO2)cc2n1CCc1cc(C#CC3CC3)ccc1-2
result: 1.9

---

experiment: Clearance in male Sprague-Dawley rat at 0.5 mg/kg, iv administered as single bolus dose using PEG-200/NaCl formulation measured after 24 hrs by LC-MS/MS analysis; settings: in vivo
property-label: clearance at 24 h

query: Value lookup for clearance at 24 h; key = O=c1nc(OC[C@@H]2COCCO2)cc2n1CCc1cc(C#CC3CC3)ccc1-2
result: 11.7 mL/min/kg

---

assay: in vivo; settings: Balb/c, mouse, plasma, po, 3 mg/kg
property-label: AUC(0-t) at 24 h (ng·h/mL)
Answer format: numeric, ng·h/mL implied, no suffix.

query: Value lookup for AUC(0-t) at 24 h; key = O=c1nc(OC[C@@H]2COCCO2)cc2n1CCc1cc(C#CC3CC3)ccc1-2
result: 5560

---

For each entry below, report its CLint scaled at 0.5 h, 1 µM value.
test: in vitro; conditions: mouse, liver microsomes
Answer format: numeric, mL/min/kg implied, no suffix.

query: Value lookup for CLint scaled at 0.5 h, 1 µM; key = CN(CC#Cc1ccc2c(c1)CCn1c-2cc(OCC2COCCO2)nc1=O)Cc1ccccc1 (stereo not given)
result: 433

query: Value lookup for CLint scaled at 0.5 h, 1 µM; key = O=c1nc(OC[C@H]2COCCO2)cc2n1CCc1cc(C#CC3CC3)ccc1-2
result: 98.3

query: Value lookup for CLint scaled at 0.5 h, 1 µM; key = CC(C)CC(O)C#Cc1ccc2c(c1)CCn1c-2cc(OCC2COCCO2)nc1=O (stereo not given)
result: 437

query: Value lookup for CLint scaled at 0.5 h, 1 µM; key = COc1ccc2c(c1)CCn1c-2cc(OCc2ccccc2F)nc1=O
result: 1490

query: Value lookup for CLint scaled at 0.5 h, 1 µM; key = O=c1nc(OCC2COCCO2)cc2n1CCc1cc(C#CC3CC3)ccc1-2 (racemic)
result: 162

---

target: 3',5'-cyclic-AMP phosphodiesterase 4A (Homo sapiens); experiment: Inhibition of recombinant human PDE4A overexpressed in HEK293 cells assessed as reduction in cAMP hydrolysis by HTRF based immunoassay; type: cell-based; conditions: read-out: IC50
Sequence (P27815 whole entry): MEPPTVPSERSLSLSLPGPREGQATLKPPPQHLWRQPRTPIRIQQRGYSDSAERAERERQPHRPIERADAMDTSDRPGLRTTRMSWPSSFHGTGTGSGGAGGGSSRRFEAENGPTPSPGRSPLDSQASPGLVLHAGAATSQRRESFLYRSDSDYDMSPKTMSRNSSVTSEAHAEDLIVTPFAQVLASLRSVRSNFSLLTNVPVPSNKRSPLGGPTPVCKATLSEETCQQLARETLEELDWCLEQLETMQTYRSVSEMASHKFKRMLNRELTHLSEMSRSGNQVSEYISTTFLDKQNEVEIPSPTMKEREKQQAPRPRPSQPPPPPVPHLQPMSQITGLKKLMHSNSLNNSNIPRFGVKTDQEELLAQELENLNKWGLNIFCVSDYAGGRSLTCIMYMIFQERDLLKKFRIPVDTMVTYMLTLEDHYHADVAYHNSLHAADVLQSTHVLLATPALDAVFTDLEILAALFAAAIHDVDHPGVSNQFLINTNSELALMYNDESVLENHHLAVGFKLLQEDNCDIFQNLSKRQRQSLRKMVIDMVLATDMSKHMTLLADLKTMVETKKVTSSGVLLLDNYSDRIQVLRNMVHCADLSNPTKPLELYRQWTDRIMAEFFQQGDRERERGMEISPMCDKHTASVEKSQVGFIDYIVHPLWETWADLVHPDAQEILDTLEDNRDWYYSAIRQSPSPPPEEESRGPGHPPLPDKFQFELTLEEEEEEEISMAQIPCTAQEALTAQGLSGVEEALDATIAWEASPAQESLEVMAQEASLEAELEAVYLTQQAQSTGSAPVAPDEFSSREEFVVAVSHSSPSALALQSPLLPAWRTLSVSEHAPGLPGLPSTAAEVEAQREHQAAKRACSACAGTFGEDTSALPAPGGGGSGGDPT
For each entry below, report its pIC50 value.
As a rule, pIC50 stands for the negative log10 of the concentration, concentration in M.

query: Reported pIC50 for 3',5'-cyclic-AMP phosphodiesterase 4A (Homo sapiens), given COc1cc2c(cc1OC)-c1cc(OCc3ccccc3F)nc(=O)n1CC2 ?
result: 6.43

query: Reported pIC50 for 3',5'-cyclic-AMP phosphodiesterase 4A (Homo sapiens), given COc1cc2c(cc1OC)-c1cc(OCC3CCCO3)nc(=O)n1CC2 (stereo unspecified) ?
result: 5.66

query: Reported pIC50 for 3',5'-cyclic-AMP phosphodiesterase 4A (Homo sapiens), given COc1cc2c(cc1OC)-c1cc(OCCOc3ccccc3)nc(=O)n1CC2 ?
result: 5.67

query: Reported pIC50 for 3',5'-cyclic-AMP phosphodiesterase 4A (Homo sapiens), given COc1cc2c(cc1OC)-c1cc(OCc3ncccc3F)nc(=O)n1CC2 ?
result: 5.96

query: Reported pIC50 for 3',5'-cyclic-AMP phosphodiesterase 4A (Homo sapiens), given COc1cc2c(cc1OC)-c1cc(OCCOc3ccccn3)nc(=O)n1CC2 ?
result: 6.23

query: Reported pIC50 for 3',5'-cyclic-AMP phosphodiesterase 4A (Homo sapiens), given COc1cc2c(cc1OC)-c1cc(NCc3ccccc3)nc(=O)n1CC2 ?
result: 6.26
